Assay: CEETOX_H295R_CORTIC: CeeTox H295R High-throughput Steroidogenesis Assay for Corticosterone (CORTIC) (AID 2283437);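 note: corticosterone secreted into medium quantified by mass spectrometry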
Conditions: actives raise or lower the signal
Activity calls are given as the source filed them. Rule for the calls: active = hit-call score of the fitted dose curve at least 0.9, where 1 is the maximum; inactive = score below 0.9.
Respond with a class label; see active, inactive

SMILES_ENTRY | LABEL_VALUE
CCOC(=O)[C@]1(c2ccccc2)Oc2ccccc2[C@@H]1N | active
Nc1ccc(N=Nc2ccccc2)cc1 | inactive
CC(C)(O)c1cnn2c(-c3ccc(F)c(-c4c(F)cccc4C#N)c3)cnc2n1 | inactive
Oc1ccc2ccc3cccc4ccc1c2c34 | active

*Q* Per the assay record, what outcome was assigned to Cc1cccc(N)c1N ?
*A* inactive

The origin of these recorded values is PubChem BioAssay (EPA / NIEHS).
